Ref: patent US11034692B1

Please provide measured pKi for the entries that follow.
- System Name: HPK1-FL (HPK full length, T165E S171E) (Homo sapiens (Human), UniProt Q92918, S171E/T165E)
- Sequence (Q92918 whole entry T165E/S171E): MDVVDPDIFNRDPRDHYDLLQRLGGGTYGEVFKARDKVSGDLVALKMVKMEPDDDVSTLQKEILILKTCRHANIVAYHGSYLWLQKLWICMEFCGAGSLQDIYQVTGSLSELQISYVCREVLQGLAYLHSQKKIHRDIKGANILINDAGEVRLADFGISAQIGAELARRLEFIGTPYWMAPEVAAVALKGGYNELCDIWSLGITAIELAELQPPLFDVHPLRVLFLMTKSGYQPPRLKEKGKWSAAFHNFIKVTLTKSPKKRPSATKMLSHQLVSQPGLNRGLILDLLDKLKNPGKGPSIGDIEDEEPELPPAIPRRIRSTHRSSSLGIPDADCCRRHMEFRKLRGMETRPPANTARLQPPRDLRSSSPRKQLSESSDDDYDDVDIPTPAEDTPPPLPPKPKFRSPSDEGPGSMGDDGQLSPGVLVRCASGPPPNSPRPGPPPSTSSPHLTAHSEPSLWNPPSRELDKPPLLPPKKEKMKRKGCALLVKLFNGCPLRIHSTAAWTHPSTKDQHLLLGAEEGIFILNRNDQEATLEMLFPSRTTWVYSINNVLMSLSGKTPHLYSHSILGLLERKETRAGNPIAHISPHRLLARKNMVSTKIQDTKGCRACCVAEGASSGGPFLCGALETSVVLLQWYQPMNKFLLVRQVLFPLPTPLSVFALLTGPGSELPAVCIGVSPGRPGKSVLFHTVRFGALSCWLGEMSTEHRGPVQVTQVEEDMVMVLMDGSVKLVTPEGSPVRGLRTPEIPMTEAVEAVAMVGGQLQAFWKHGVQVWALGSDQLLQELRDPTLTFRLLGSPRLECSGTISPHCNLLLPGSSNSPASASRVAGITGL
- Assay Protocol: HPK1-FL HTRF Enzymatic Assay ("HTRF")
- Format: biochemical
- Condition Description: ATP 1 mM, Table B1-2, read-out: HPK1 Ki, H = HTRF
- Procedure: HPK1-FL HTRF Enzymatic Assay (“HTRF”) HPK-FL enzyme phosphorylates Biotin-SLP-76 substrate in the presence of ATP at 1 mM and varying concentrations of test compound. Product is detected by FRET using Eu-anti-pSLP76 Ab and SA-XL665. […] To a 384 well Proxiplate with 80 nL compound or DMSO spotted on was added 4 μl/well kinase mix. […] The plates were then loaded onto a Perkin Elmer Envision and the TR-FRET signal was measured at 615 and 665 nm. […]
Conceptually, pKi converts a concentration in mol/L into minus its log10.

Tell me the measured pKi of Cc1cc(C(N)=O)cc(F)c1-c1cc2cc(NC(=O)[C@H]3C[C@@H]3c3cnn(C)c3)ncc2c(N)n1 (single isomer, unassigned) , please.
9.48

Can you check Cc1cc(-c2ncco2)cc(F)c1-c1cc2cc(NC(=O)[C@H]3[C@H](C)[C@@H]3c3cnn(C)c3)ncc2c(N)n1 (single isomer, unassigned) next?
8.21

Can you check Cc1c(N)cncc1-c1cc2cc(Nc3cc4n(n3)CC(=O)N(C)CC4)ncc2c(N)n1 next?
9.68

Can you check Cc1c(N)cncc1-c1cc2cc(Nc3cc4n(n3)CC(=O)N(C)CC43CC3)ncc2c(N)n1 next?
10.89

Can you check CC(C)N1CCc2cc(Nc3cc4cc(C(C)n5ccccc5=O)nc(N)c4cn3)nn2CC1=O (racemic) next?
5.78

Can you check Cc1cc(-c2ncco2)cc(F)c1-c1cc2cc(NC(=O)[C@H]3[C@@H](C)[C@@H]3c3cnn(C)c3)ncc2c(N)n1 (single isomer, unassigned) next?
7.40

Can you check CC(Oc1ccccn1)c1cc2cc(Nc3cc4n(n3)CC(=O)N(C(C)C)CC4)ncc2c(N)n1 (racemic) next?
6.29

Can you check Cc1cc(C(N)=O)cc(F)c1-c1cc2cc(NC(=O)[C@@H]3C[C@H]3c3cnn(C)c3)ncc2c(N)n1 (single isomer, unassigned) next?
8.30
